Please respond with reported TGI for every item in the list.
- Tested on: NCI-H460 lung
- assay-name: NCI tumour cell line growth inhibition, 48 h
Where a SMILES comes first, the peptide text is derived from it. The star is where a group is joined. Boc = CC(C)(C)OC(=O)*

Test system NCI-H460 lung; read-out TGI; what value for NCCSS(=O)(=O)CCN ?
> 100 µM

Test system NCI-H460 lung; read-out TGI; what value for CC(=O)c1ccc2c(c1)CC1(C2)Cc2cc3c(cc2C1=O)CCC3 (stereo unspecified) ?
76.3 µM

Test system NCI-H460 lung; read-out TGI; what value for CN(C)CCCN1c2ccccc2Sc2ccc3ccccc3c21 ?
7.66 µM

Test system NCI-H460 lung; read-out TGI; what value for COc1cc2c3c(c1)CCCN3CCC2 ?
> 10 µM

Test system NCI-H460 lung; read-out TGI; what value for C=CCC1(OCc2ccccc2)C(=O)C(=O)OC1C1COC(C)(C)O1 (stereo unspecified) ?
> 100 µM

Test system NCI-H460 lung; read-out TGI; what value for Cc1ccc(/C=C/C(=O)C(C)(C)CN2CCCCC2)cc1 ?
23.5 µM

Test system NCI-H460 lung; read-out TGI; what value for Cc1cc(S(=O)(=O)/N=C(/N)Nc2ccccc2O)c(SCc2ccccc2)cc1Cl ?
50.7 µM

Test system NCI-H460 lung; read-out TGI; what value for N#CC1(C(N)=O)C(c2ccc(Cl)cc2)CC(=O)CC1c1ccc(Cl)cc1 (stereo unspecified) ?
33.4 µM

Test system NCI-H460 lung; read-out TGI; what value for CC(C)(C)OC(=O)NC(Cc1ccc(O)cc1)C(=O)N1CCCC1C(=O)O (stereo not drawn) (Boc-Tyr-Pro-OH; configuration not given here) ?
> 100 µM

Test system NCI-H460 lung; read-out TGI; what value for N#CC(=C1C=CC(=NO)C=C1)c1ccc(Cl)cc1 ?
56.4 µM

Test system NCI-H460 lung; read-out TGI; what value for CN[C@@H](C)C(=O)N[C@H](C(=O)N1CCC[C@H]1C(=O)Nc1sc(-c2ncco2)nc1-c1ccccc1)C1CCCCC1 ?
> 100 µM

Test system NCI-H460 lung; read-out TGI; what value for C/C=C1\CN2CCc3c([nH]c4ccccc34)C2CC1C(=O)OC (stereo unspecified) ?
> 322 µM

Test system NCI-H460 lung; read-out TGI; what value for FC(F)(F)c1ccc(-c2cnc(-c3ncon3)nc2NC2CCCCCC2)cc1 ?
> 100 µM

Test system NCI-H460 lung; read-out TGI; what value for CS(=O)(=O)c1ccc(-c2cc(-c3ccc(S(C)(=O)=O)cc3)[n+](-c3cc(-c4ccc(S(C)(=O)=O)cc4)c([O-])c(-c4ccc(S(C)(=O)=O)cc4)c3)c(-c3ccc(S(C)(=O)=O)cc3)c2)cc1 ?
> 100 µM

Test system NCI-H460 lung; read-out TGI; what value for Cn1c(=O)c2[nH]c(CCNC(=O)c3ccccc3)nc2n(C)c1=O ?
> 100 µM

Test system NCI-H460 lung; read-out TGI; what value for OCC1OC(n2cnc3c(N/N=C\c4ccccn4)ncnc32)C(O)C1O (stereo unspecified) ?
4.53 µM

* * *

- Test system: EKVX NSCLC
- assay-name: NCI tumour cell line growth inhibition, 48 h
measure: TGI

Query: TGI; subject: CN1c2ccccc2C(=O)NC12CCN(CCCC(=O)c1ccc(F)cc1)CC2
> 100 µM

Query: TGI; subject: O=c1[nH]c(=O)n(C2CC(O)C(COP(=O)(OCc3ccc([N+](=O)[O-])o3)N(CCCCCl)CC(O)CO)O2)cc1F (stereo unspecified)
> 100 µM

Query: TGI; subject: COc1cc2c(c(OC)c1OC)-c1ccc(SC)c(=O)cc1C(NC(=O)c1ccccc1)CC2 (stereo unspecified)
> 100 µM

Query: TGI; subject: O=C(/C=C/c1ccccc1)CCN1CCOCC1
30.6 µM

Query: TGI; subject: CCc1nn(CN2CCOCC2)c(=S)n1/N=C/c1ccc(-c2ccc(Cl)cc2)o1
> 100 µM

Query: TGI; subject: O=c1[nH]cc(-c2c[nH]c3ccccc23)nc1-c1c[nH]c2ccccc12
24.6 µM

Reference source for all entries: PubChem BioAssay (NCI)
